# EC50 per record follows
- Assay target: Ba/F3 stable cells (Homo sapiens, UniProt P00533, T790M/L858R, cells depend on it)
- Construct: EC50 Ba/F3-EGFR L858R-T790M; other: Ba/F3-EGFR L858R-T790M cells, 72 h, CCK-8
- Sequence (P00533 whole entry T790M/L858R): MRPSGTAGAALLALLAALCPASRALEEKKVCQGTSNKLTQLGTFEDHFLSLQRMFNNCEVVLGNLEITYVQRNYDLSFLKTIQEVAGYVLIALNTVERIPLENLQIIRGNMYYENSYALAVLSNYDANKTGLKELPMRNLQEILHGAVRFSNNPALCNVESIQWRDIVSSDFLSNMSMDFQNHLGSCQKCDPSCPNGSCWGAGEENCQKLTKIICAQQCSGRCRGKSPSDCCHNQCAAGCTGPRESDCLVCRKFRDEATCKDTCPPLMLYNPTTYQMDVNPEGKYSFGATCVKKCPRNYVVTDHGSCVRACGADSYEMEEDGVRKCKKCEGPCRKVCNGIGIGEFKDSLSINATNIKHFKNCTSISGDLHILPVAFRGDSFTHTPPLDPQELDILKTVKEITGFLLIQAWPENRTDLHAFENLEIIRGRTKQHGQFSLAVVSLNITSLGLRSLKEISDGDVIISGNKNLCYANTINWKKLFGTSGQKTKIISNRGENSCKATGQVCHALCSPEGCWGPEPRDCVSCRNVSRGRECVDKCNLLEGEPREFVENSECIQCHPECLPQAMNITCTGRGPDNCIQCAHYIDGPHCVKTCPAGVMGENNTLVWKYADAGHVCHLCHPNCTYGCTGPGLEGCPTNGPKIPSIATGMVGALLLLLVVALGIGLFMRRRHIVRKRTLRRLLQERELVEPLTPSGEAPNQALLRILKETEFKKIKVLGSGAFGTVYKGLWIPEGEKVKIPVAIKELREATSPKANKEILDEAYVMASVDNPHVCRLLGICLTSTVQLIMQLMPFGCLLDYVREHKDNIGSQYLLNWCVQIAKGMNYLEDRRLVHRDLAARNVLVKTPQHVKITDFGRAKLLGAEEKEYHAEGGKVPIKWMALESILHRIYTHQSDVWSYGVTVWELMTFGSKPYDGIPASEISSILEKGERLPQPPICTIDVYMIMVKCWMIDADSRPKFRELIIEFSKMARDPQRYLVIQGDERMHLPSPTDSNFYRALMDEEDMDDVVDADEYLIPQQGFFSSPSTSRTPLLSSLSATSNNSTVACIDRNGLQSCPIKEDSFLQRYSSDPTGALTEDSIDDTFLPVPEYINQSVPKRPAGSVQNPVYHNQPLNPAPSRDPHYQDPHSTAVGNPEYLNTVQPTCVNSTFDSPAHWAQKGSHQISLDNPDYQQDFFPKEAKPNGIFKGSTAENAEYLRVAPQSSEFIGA
- Assay details: EC50 assay: Ba/F3 stable cell proliferation (CCK-8, 72 h)
- Experimental conditions: Ba/F3-EGFR L858R-T790M cells
- Method: 4,000 Ba/F3 stable cells/90 μL/well were plated onto 96-well cell culture plate (Grenier, Cat.No. 655180) and incubated at 37° C. with a humidified atmosphere of 5% CO2 for 2 h. Then the cells were treated with 10 μL compounds at serial titration. […] 10 μL the cell proliferation reagent CCK-8 (Dojindo, Cat.No. CK04 1000T) was added into each well and incubated the plate at 37° C. for 4 hours, the GD value was measured by SPECTRAmax plus (Molecular Devices) at 450 nm. […]

The following molecules have reported results that may help.
C=CC(=O)N1CCC(Oc2cc3c(NCc4cccc(C)c4)ncnc3cc2OC)CC1	200 to 1000 nM
C=CC(=O)NC1CC(Nc2cc3c(Nc4ccc(Cl)c(Cl)c4F)ncnc3cc2OC)C1 (centres unmarked)	200 to 1000 nM
C=CC(=O)N1CC(c2cc3c(Nc4ccc(OCc5ccccc5)c(Cl)c4F)ncnc3cc2OC)C1	> 1000 nM
C=CC(=O)N[C@H]1C[C@@H](Oc2cc3c(Nc4ccc(Cl)c(Cl)c4F)ncnc3cc2OC2COC2)C1	200 to 1000 nM
C=CC(=O)N[C@H]1C[C@@H](Oc2cc3c(Nc4ccc(Cl)c(Cl)c4F)ncnc3cc2NC)C1	≤ 200 nM

Ask | Specify EC50 for C=CC(=O)N1CCC(Oc2cc3c(NCc4cc(Cl)ccc4F)ncnc3cc2OC)CC1 and stop.
Reply | > 1000 nM

Ask | Specify EC50 for C=CC(=O)N1C2CCC1CC(Oc1cc3c(Nc4cccc5c4CCC5)ncnc3cc1OC)C2 (centres unmarked) and stop.
Reply | ≤ 200 nM

Ask | Specify EC50 for C=CC(=O)N1CCC(Oc2cc3c(NC(CC(N)=O)c4cccc(Cl)c4)ncnc3cc2OC)CC1 (centres unmarked) and stop.
Reply | > 1000 nM

* * *

- Assay target: Ba/F3 stable cells (Homo sapiens, UniProt P00533, DUP768-770, cells depend on it)
- Construct: EC50 Ba/F3-EGFR D770-N771insSVD; other: Ba/F3-EGFR D770-N771insSVD cells, 72 h, CCK-8
- Sequence (P00533 with tags, fused parts or gaps DUP768-770): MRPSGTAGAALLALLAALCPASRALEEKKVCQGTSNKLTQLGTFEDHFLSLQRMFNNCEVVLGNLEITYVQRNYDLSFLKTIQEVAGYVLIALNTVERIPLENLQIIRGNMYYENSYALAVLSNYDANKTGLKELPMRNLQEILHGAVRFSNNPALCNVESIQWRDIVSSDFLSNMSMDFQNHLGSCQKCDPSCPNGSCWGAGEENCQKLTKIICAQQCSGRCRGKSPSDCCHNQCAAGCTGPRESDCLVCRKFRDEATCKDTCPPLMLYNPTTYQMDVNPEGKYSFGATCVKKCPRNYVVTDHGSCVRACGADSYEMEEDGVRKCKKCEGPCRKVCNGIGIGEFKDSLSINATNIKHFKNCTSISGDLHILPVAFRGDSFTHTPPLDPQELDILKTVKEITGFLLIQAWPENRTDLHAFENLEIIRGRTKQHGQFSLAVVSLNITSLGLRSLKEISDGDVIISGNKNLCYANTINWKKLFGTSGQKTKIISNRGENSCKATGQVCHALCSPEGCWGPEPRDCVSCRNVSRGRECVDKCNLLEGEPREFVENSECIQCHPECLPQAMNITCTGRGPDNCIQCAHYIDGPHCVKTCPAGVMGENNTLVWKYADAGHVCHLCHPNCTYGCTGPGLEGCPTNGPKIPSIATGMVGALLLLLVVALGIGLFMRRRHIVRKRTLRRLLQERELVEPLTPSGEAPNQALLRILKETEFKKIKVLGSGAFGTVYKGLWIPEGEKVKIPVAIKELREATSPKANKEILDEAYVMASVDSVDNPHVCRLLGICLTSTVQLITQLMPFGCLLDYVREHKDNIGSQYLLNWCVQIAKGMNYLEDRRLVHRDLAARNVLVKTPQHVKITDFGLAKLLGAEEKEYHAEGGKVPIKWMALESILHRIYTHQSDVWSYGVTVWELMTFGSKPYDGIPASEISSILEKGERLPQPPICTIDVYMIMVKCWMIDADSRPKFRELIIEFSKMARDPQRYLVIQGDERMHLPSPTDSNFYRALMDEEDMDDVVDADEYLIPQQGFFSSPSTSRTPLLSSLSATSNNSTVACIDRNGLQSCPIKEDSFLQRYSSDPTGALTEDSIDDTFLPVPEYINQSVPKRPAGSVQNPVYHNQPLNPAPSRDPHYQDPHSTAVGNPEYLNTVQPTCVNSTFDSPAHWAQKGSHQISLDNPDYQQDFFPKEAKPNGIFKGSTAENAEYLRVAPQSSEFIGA
- Assay details: EC50 assay: Ba/F3 stable cell proliferation (CCK-8, 72 h)
- Format: cell-based
- Experimental conditions: Ba/F3-EGFR D770-N771insSVD cells
Parameter measured: EC50

The following compounds have reported results that may help.
C=CC(=O)N1CC(c2cc3c(Nc4ccc(F)c5ccccc45)ncnc3cc2OC)C1 [Compound 14]	> 1 µM
C=CC(=O)N1CCC(Oc2c(OC)cc3ncnc4c3c2NC(=O)N4c2ccc(Cl)c(Cl)c2F)CC1 [Compound 199]	0.2 to 1 µM
C=CC(=O)N1CCC(Oc2cc3c(NC(CC(N)=O)c4cccc(Cl)c4)ncnc3cc2OC)CC1 (centres unmarked) [Compound 130]	> 1 µM
C=CS(=O)(=O)N1CCCC(c2ccc3ncnc(Nc4ccc(Cl)c(Cl)c4F)c3c2)C1 (centres unmarked) [Compound 188]	0.2 to 1 µM
C#CC(=O)N1CCC(Oc2cc3c(Nc4cccc5ccccc45)ncnc3cc2OC)CC1 [Compound 54]	≤ 0.2 µM
C=CC(=O)N1CCC(Oc2c(OC)cc3ncnc4c3c2C=CN4c2ccc(Cl)c(Cl)c2F)CC1 [Compound 218]	0.2 to 1 µM

Ask | Specify EC50 for C=CC(=O)N1CCC(Oc2cc3c(Nc4ccc5cccnc5c4)ncnc3cc2OC)CC1 [Compound 141] and stop.
Reply | > 1 µM

Ask | Specify EC50 for C=CC(=O)N[C@H]1C[C@H](Oc2cc3c(Nc4ccccc4F)ncnc3cc2OC)C1 [Compound 77] and stop.
Reply | > 1 µM

Ask | Specify EC50 for C=CC(=O)N1CCC(Oc2cc3c(C(=O)N[C@H](C)c4ccc(F)cc4)ncnc3cc2OC)CC1 [Compound 95] and stop.
Reply | > 1 µM

Ask | Specify EC50 for C=CC(=O)N[C@H]1C[C@@H](Oc2cc3c(C(=O)N[C@H](C)c4ccc(F)cc4)ncnc3cc2OC)C1 [Compound 97] and stop.
Reply | > 1 µM

Ask | Specify EC50 for C=CC(=O)N1CCC(Oc2cc3c(Nc4ccc5ncsc5c4)ncnc3cc2OC)CC1 [Compound 145] and stop.
Reply | > 1 µM

Ask | Specify EC50 for C=CC(=O)NC1CC(Oc2cc3c(Nc4ccc(F)c5c4CCC5O)ncnc3cc2OC)C1 (centres unmarked) [Compound 69] and stop.
Reply | > 1 µM

Ask | Specify EC50 for C=CC(=O)N1CCC(Oc2cc3c(C(=O)c4ccc(Cl)c(Cl)c4F)ncnc3cc2OC)CC1 [Compound 175] and stop.
Reply | 0.2 to 1 µM

* * *

# EC50 per record follows
- Assay target: Ba/F3 stable cells (Homo sapiens, UniProt P04626, DUP772-775, cells depend on it)
- Construct: EC50 Ba/F3-HER2 A775-G776insYVMA; other: Ba/F3-HER2 A775-G776insYVMA cells, 72 h, CCK-8
- Sequence (P04626 with tags, fused parts or gaps DUP772-775): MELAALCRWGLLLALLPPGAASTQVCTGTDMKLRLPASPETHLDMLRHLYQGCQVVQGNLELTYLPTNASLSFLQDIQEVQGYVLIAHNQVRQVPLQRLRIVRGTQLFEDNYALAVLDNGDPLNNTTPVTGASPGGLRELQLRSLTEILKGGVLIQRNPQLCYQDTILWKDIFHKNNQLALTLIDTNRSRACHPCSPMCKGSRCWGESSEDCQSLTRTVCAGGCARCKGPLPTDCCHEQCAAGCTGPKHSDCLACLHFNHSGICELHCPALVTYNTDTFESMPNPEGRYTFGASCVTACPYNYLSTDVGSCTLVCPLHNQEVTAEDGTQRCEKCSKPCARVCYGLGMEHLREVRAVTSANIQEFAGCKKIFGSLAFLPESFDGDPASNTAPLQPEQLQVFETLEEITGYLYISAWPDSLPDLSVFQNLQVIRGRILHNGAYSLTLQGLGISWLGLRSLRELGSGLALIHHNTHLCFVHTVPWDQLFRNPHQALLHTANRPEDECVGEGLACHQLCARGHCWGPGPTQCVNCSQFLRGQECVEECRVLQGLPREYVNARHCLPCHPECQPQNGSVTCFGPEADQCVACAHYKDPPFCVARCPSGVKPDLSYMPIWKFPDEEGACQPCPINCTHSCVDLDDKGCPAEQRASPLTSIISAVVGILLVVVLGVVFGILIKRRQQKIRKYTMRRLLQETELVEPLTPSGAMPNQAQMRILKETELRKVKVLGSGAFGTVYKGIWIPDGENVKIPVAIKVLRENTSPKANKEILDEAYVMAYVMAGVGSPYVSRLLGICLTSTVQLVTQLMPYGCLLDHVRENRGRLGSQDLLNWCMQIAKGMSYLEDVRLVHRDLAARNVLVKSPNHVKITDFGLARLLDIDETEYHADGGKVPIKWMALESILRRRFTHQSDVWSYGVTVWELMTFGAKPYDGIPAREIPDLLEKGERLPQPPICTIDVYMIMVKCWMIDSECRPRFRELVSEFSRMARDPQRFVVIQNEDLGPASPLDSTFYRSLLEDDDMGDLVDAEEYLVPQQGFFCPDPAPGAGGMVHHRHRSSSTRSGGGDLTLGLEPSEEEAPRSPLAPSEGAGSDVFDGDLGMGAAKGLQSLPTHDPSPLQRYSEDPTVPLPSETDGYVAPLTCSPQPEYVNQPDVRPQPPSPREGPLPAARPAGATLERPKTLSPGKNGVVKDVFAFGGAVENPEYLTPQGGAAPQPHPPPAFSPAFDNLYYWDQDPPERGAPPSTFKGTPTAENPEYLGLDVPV
- Assay details: EC50 assay: Ba/F3 stable cell proliferation (CCK-8, 72 h)
- Assay type: cell-based
- Experimental conditions: Ba/F3-HER2 A775-G776insYVMA cells

The following molecules have reported results that may help.
C=CC(=O)N[C@H]1C[C@@H](Oc2cc3c(Nc4ccc(Cl)c(Cl)c4F)ncnc3cc2OC)C1 [Compound 66]	≤ 200 nM
C=CC(=O)N1CCCC(Oc2cc3c(Nc4ccc(Cl)c(Cl)c4F)ncnc3cc2OC)C1 (centres unmarked) [Compound 132]	200 to 1000 nM
C=CC(=O)NC1CC(Oc2cc3c(NCc4ccc(F)cc4)ncnc3cc2OC)C1 (centres unmarked) [Compound 84]	> 1000 nM
C=CC(=O)N1CCC(Oc2cc3c(OCc4cccc(Cl)c4)ncnc3cc2OC)CC1 [Compound 107]	> 1000 nM
C#CC(=O)NC1CC(Oc2cc3c(Nc4cccc5ccccc45)ncnc3cc2OC)C1 (centres unmarked) [Compound 46]	≤ 200 nM
C=CC(=O)N1CCC(Oc2cc3c(Nc4ccc5c(c4)CCC5)ncnc3cc2OC)CC1 [Compound 153]	200 to 1000 nM

Ask | Specify EC50 for C=CC(=O)N(C)C1CC(Oc2cc3c(Nc4ccc(Cl)c(Cl)c4F)ncnc3cc2OC)C1 (centres unmarked) [Compound 72] and stop.
Reply | 200 to 1000 nM

Ask | Specify EC50 for C=CC(=O)N1CC(c2ccc3ncnc(Nc4ccc(Cl)c(Cl)c4F)c3c2)C1 [Compound 8] and stop.
Reply | 200 to 1000 nM

Ask | Specify EC50 for C#CC(=O)N[C@H]1C[C@@H](Oc2cc3c(Nc4cccc5ccccc45)ncnc3cc2OC)C1 [Compound 47] and stop.
Reply | 200 to 1000 nM

Ask | Specify EC50 for C=CC(=O)N1CC(c2cc3c(Nc4ccc5[nH]ccc5c4)ncnc3cc2OC)C1 [Compound 11] and stop.
Reply | 200 to 1000 nM

Ask | Specify EC50 for C#CC(=O)N1C2CCC1CC(Oc1cc3c(Nc4cccc5ccccc45)ncnc3cc1OC)C2 (centres unmarked) [Compound 60] and stop.
Reply | 200 to 1000 nM

Ask | Specify EC50 for C=C(F)C(=O)N1CCC(Oc2cc3c(Nc4ccc(Cl)c(Cl)c4F)ncnc3cc2OC)CC1 [Compound 50] and stop.
Reply | 200 to 1000 nM

Ask | Specify EC50 for C=CC(=O)N1CCC(Oc2cc3c(NCc4cc(Cl)ccc4Cl)ncnc3cc2OC)CC1 [Compound 119] and stop.
Reply | > 1000 nM

* * *

# EC50 per record follows
- Assay target: Ba/F3 stable cells (Homo sapiens, UniProt P00533, DUP768-770, cells depend on it)
- Construct: EC50 Ba/F3-EGFR D770-N771insSVD; other: Ba/F3-EGFR D770-N771insSVD cells, 72 h, CCK-8
- Assay details: EC50 assay: Ba/F3 stable cell proliferation (CCK-8, 72 h)
- Experimental conditions: Ba/F3-EGFR D770-N771insSVD cells
- Protocol: 4,000 Ba/F3 stable cells/90 μL/well were plated onto 96-well cell culture plate (Grenier, Cat.No. 655180) and incubated at 37° C. with a humidified atmosphere of 5% CO2 for 2 h. Then the cells were treated with 10 μL compounds at serial titration. […] 10 μL the cell proliferation reagent CCK-8 (Dojindo, Cat.No. CK04 1000T) was added into each well and incubated the plate at 37° C. for 4 hours, the GD value was measured by SPECTRAmax plus (Molecular Devices) at 450 nm. […]

The following molecules have reported results that may help.
COc1cc2ncnc(Nc3ccc(Cl)c(Cl)c3F)c2cc1OC1CC(N(C)C#N)C1 (centres unmarked) [Compound 196]	0.2 to 1 µM
C=CC(=O)N1CC(c2cc3c(Nc4ccc(Cl)c(Cl)c4F)ncnc3cc2OCCN(C)C)C1 [Compound 26]	0.2 to 1 µM
[2H]C([2H])([2H])Oc1cc2ncnc(Nc3ccc(Cl)c(Cl)c3F)c2cc1C1CN(C(=O)C(=C)F)C1 [Compound 39]	> 1 µM
C=CC(=O)N1CCC(Oc2cc3c(Nc4ccc5ccccc5c4Cl)ncnc3cc2OC)CC1 [Compound 160]	> 1 µM
C=CC(=O)N1CC(c2cc3c(Nc4ccc(Cl)c(Cl)c4F)ncnc3cc2OCCCN2CCN(C)CC2)C1 [Compound 31]	≤ 0.2 µM

Ask | Specify EC50 for C=CC(=O)NC1CC(Oc2cc3c(NCc4ccc(F)cc4)ncnc3cc2OC)C1 (centres unmarked) [Compound 84] and stop.
Reply | > 1 µM

Ask | Specify EC50 for C=CC(=O)N1CCC(Oc2cc3c(NCc4cc(Cl)ccc4Cl)ncnc3cc2OC)CC1 [Compound 119] and stop.
Reply | > 1 µM

Ask | Specify EC50 for C=CC(=O)N1CCC(Oc2cc3c(Nc4ccc5c(ccn5C)c4)ncnc3cc2OC)CC1 [Compound 170] and stop.
Reply | > 1 µM
